Target Or Test System: human GLP-1R (SNAP-GLP-1R expressed in HEK293 cells) (human) (UniProt P43220)
Sequence (P43220 24-463): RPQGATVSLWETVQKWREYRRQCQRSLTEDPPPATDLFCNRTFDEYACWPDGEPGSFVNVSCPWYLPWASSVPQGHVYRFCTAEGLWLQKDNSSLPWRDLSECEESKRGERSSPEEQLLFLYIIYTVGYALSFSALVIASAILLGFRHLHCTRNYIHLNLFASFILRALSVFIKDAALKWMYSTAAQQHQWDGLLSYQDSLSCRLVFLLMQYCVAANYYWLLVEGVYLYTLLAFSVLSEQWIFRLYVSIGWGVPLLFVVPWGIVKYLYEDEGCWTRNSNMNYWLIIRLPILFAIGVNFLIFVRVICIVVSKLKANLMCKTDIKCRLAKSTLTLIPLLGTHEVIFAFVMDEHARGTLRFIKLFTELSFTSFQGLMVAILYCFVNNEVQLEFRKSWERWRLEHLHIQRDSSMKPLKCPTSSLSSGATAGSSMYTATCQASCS
Method Notes: cell-based or functional assay
Starred links: 1 amine or outer side, 2 acyl side, 3 side chain; linkers in the order of their positions; H or OH if unused. Non-standard residues stand in square brackets, D forms with d. Groups on a side chain read outwards from the residue. No end group written: not given here. *: point of attachment. C20 diacid = O=C(O)CCCCCCCCCCCCCCCCCCC(=O)*; αMePhe(2-F) = C[C@](N)(Cc1ccccc1F)C(=O)O; γGlu = O=C(O)[C@H](CCC(=O)[*:2])N[*:1]; AEEA = NCCOCCOCC(=O)O; Aib = CC(C)(N)C(=O)O
Record true whenever GLP1R Internalization EC50 is at 60 nM or higher; record false when lower.

binder="YXQGTFTSDFSXXLDKKAQXAFIEWLLEGGSSSGAPPPSGT (synthetic construct; SITE 2: note = 2-Aminoisobutyric Acid; SITE 12: note = L-ornithine; SITE 13: note = alpha-methyl-leucine; SITE 17: note = Lysine is chemically modified through conjugation of the epsilon-amino group of the Lysine side chain with (2-[2-(2-Amino-ethoxy)-ethoxy]-acetyl)-(gamma-Glu)) [Example 174]" group=true
binder="YXQGTFTSDFSQXLDKKAQXAFIEYLIEXGESSGAPPPSGS (synthetic construct; SITE 2: note = 2-Aminoisobutyric Acid; SITE 13: note = alpha-methyl-leucine; SITE 17: note = Lysine is chemically modified through conjugation of the epsilon-amino group of the Lysine side chain with (2-[2-(2-Amino-ethoxy)-ethoxy]-acetyl)-(gamma-Glu)-CO-(CH2) 16-CO2H; SITE 20: n) [Example 232]" group=false
binder="YXQGTFTSDFSXXLDKKAQXAFIEYLLEGGPSSGAPPPGES (synthetic construct; SITE 2: note = 2-Aminoisobutyric Acid; SITE 12: note = L-ornithine; SITE 13: note = alpha-methyl-leucine; SITE 17: note = Lysine is chemically modified through conjugation of the epsilon-amino group of the Lysine side chain with (2-[2-(2-Amino-ethoxy)-ethoxy]-acetyl)2-(gamma-Glu)) [Example 118]" group=true
binder="Y[Aib]QGT[αMePhe(2-F)]TSDYSILLDKIAAK([AEEA-γGlu-C20 diacid])AFIEYLIEGGPSSGEPPPSEG-NH2 [Example 296]" group=false
binder="YXQGTFTSDFSXXLDKKAQXAFIEYLLEXGPSSXAPPPSGS (synthetic construct; SITE 2: note = 2-Aminoisobutyric Acid; SITE 12: note = L-ornithine; SITE 13: note = alpha-methyl-leucine; SITE 17: note = Lysine is chemically modified through conjugation of the epsilon-amino group of the Lysine side chain with (2-[2-(2-Amino-ethoxy)-ethoxy]-acetyl)-(gamma-Glu)) [Example 238]" group=false
binder="YXQGTFTSDFSXXLDKKAQXAFIEYLLEAGPSSXAPPPSGT (synthetic construct; SITE 2: note = 2-Aminoisobutyric Acid; SITE 12: note = L-ornithine; SITE 13: note = alpha-methyl-leucine; SITE 17: note = Lysine is chemically modified through conjugation of the epsilon-amino group of the Lysine side chain with (2-[2-(2-Amino-ethoxy)-ethoxy]-acetyl)-(gamma-Glu)) [Example 214]" group=false
binder="YXQGTFTSDXSQXLDKKAQXAFIEYLIAGGPSSGAPPPSGE (synthetic construct; SITE 2: note = 2-Aminoisobutyric Acid; SITE 10: note = 3-(4-Pyridyl)-L-alanine; SITE 13: note = alpha-methyl-leucine; SITE 17: note = Lysine is chemically modified through conjugation of the epsilon-amino group of the Lysine side chain with (gamma-Glu)2-CO-(CH2)16-CO2H; SITE 20:) [Example 883]" group=false
binder="YXQGTFTSDFSXXLDKKAQXAFIEWLLEGGTSSGAPPPSGS (synthetic construct; SITE 2: note = 2-Aminoisobutyric Acid; SITE 12: note = L-ornithine; SITE 13: note = alpha-methyl-leucine; SITE 17: note = Lysine is chemically modified through conjugation of the epsilon-amino group of the Lysine side chain with (2-[2-(2-Amino-ethoxy)-ethoxy]-acetyl)-(gamma-Glu)) [Example 176]" group=true
binder="YXQGTFTSDFSXXLDKKAQXAFIEYLLEXGXSSGAPPPSGS (synthetic construct; SITE 2: note = 2-Aminoisobutyric Acid; SITE 12: note = L-ornithine; SITE 13: note = alpha-methyl-leucine; SITE 17: note = Lysine is chemically modified through conjugation of the epsilon-amino group of the Lysine side chain with (2-[2-(2-Amino-ethoxy)-ethoxy]-acetyl)2-(gamma-Glu)) [Example 183]" group=true
binder="YXQGTFTSDFSXXLDKKAQXAFIEYLLEXGHSSGAPPPSGE (synthetic construct; SITE 2: note = 2-Aminoisobutyric Acid; SITE 12: note = L-ornithine; SITE 13: note = alpha-methyl-leucine; SITE 17: note = Lysine is chemically modified through conjugation of the epsilon-amino group of the Lysine side chain with (2-[2-(2-Amino-ethoxy)-ethoxy]-acetyl)2-(gamma-Glu)) [Example 186]" group=true
binder="YXQGTFTSDFSQXLDKKAQXAFIEYLLEXGPSSGAPPPSGS (synthetic construct; SITE 2: note = 2-Aminoisobutyric Acid; SITE 13: note = alpha-methyl-leucine; SITE 17: note = Lysine is chemically modified through conjugation of the epsilon-amino group of the Lysine side chain with (2-[2-(2-Amino-ethoxy)-ethoxy]-acetyl)-(gamma-Glu)-CO-(CH2) 16-CO2H; SITE 20: n) [Example 151]" group=true
binder="YXQGTFTSDXSKXLDKKAQXAFIEYLIEXGESSGEPPPSGS (synthetic construct; SITE 2: note = 2-Aminoisobutyric Acid; SITE 10: note = 3-(4-Pyridyl)-L-alanine; SITE 13: note = alpha-methyl-leucine; SITE 17: note = Lysine is chemically modified through conjugation of the epsilon-amino group of the Lysine side chain with (2-[2-(2-Amino-ethoxy)-ethoxy]-acetyl)) [Example 282]" group=false
binder="YXQGTFTSDFSXXLDKKAQXAFIEYLLEAGPSSGEPPPSEG (synthetic construct; SITE 2: note = 2-Aminoisobutyric Acid; SITE 12: note = L-ornithine; SITE 13: note = alpha-methyl-leucine; SITE 17: note = Lysine is chemically modified through conjugation of the epsilon-amino group of the Lysine side chain with (2-[2-(2-Amino-ethoxy)-ethoxy]-acetyl)2-(gamma-Glu)) [Example 116]" group=true
binder="YXQGTFTSDFSXXLDKKAQXAFIEYLLEGGPSSGAPPPGGT (synthetic construct; SITE 2: note = 2-Aminoisobutyric Acid; SITE 12: note = L-ornithine; SITE 13: note = alpha-methyl-leucine; SITE 17: note = Lysine is chemically modified through conjugation of the epsilon-amino group of the Lysine side chain with (2-[2-(2-Amino-ethoxy)-ethoxy]-acetyl)-(gamma-Glu)) [Example 158]" group=true
binder="YXQGTFTSDFSXXLDKKAQXAFIEWLLEGGSSSGAPPPSGE (synthetic construct; SITE 2: note = 2-Aminoisobutyric Acid; SITE 12: note = L-ornithine; SITE 13: note = alpha-methyl-leucine; SITE 17: note = Lysine is chemically modified through conjugation of the epsilon-amino group of the Lysine side chain with (2-[2-(2-Amino-ethoxy)-ethoxy]-acetyl)-(gamma-Glu)) [Example 172]" group=true
binder="YXQGTFTSDFSKXLDKKAQXAFIEYLLEGGPSSGAPPPSGS (synthetic construct; SITE 2: note = 2-Aminoisobutyric Acid; SITE 13: note = alpha-methyl-leucine; SITE 17: note = Lysine is chemically modified through conjugation of the epsilon-amino group of the Lysine side chain with (2-[2-(2-Amino-ethoxy)-ethoxy]-acetyl)-(gamma-Glu)-CO-(CH2) 16-CO2H; SITE 20: n) [Example 141]" group=true
binder="YXQGTFTSDFSXXLDKKAQXAFIEYLLEAGPSSGAPPPSGS (synthetic construct; SITE 2: note = 2-Aminoisobutyric Acid; SITE 12: note = L-ornithine; SITE 13: note = alpha-methyl-leucine; SITE 17: note = Lysine is chemically modified through conjugation of the epsilon-amino group of the Lysine side chain with (2-[2-(2-Amino-ethoxy)-ethoxy]-acetyl)-(gamma-Glu)) [Example 209]" group=true
binder="YXQGTFTSDXSRXLDKKAQXAFIEYLLEXGPSSGAPPPSGE (synthetic construct; SITE 2: note = 2-Aminoisobutyric Acid; SITE 10: note = 3-(4-Pyridyl)-L-alanine; SITE 13: note = alpha-methyl-leucine; SITE 17: note = Lysine is chemically modified through conjugation of the epsilon-amino group of the Lysine side chain with (2-[2-(2-Amino-ethoxy)-ethoxy]-acetyl)) [Example 114]" group=false
binder="YXQGTFTSDFSXXLDKKAQXAFIEYLLEXGPSSGAPPPSGS (synthetic construct; SITE 2: note = 2-Aminoisobutyric Acid; SITE 12: note = L-ornithine; SITE 13: note = alpha-methyl-leucine; SITE 17: note = Lysine is chemically modified through conjugation of the epsilon-amino group of the Lysine side chain with (2-[2-(2-Amino-ethoxy)-ethoxy]-acetyl)-(gamma-Glu)) [Example 192]" group=true
binder="YXQGTFTSDFSXXLDKKAQXAFIEYLLEAGPSSGAPPPSGE (synthetic construct; SITE 2: note = 2-Aminoisobutyric Acid; SITE 12: note = L-ornithine; SITE 13: note = alpha-methyl-leucine; SITE 17: note = Lysine is chemically modified through conjugation of the epsilon-amino group of the Lysine side chain with (2-[2-(2-Amino-ethoxy)-ethoxy]-acetyl)-(gamma-Glu)) [Example 129]" group=false
binder="YXQGTXTSDXSILLDKKAQXAFIEYLEEGGPSSGAPPPSGTGE (synthetic construct; SITE 2: note = 2-Aminoisobutyric Acid; SITE 6: note = alpha-methyl-2-fluoro-L-phenylalanine; SITE 10: note = 3-(4-Pyridyl)-L-alanine; SITE 17: note = Lysine is chemically modified through conjugation of the epsilon-amino group of the Lysine side chain with (gamma-Glu)2-CO-(CH2)1) [Example 510]" group=false
binder="YXQGTFTSDFSXXLDKKAQXAFIEWLLEGGPSSGAXPPSGE (synthetic construct; SITE 2: note = 2-Aminoisobutyric Acid; SITE 12: note = L-ornithine; SITE 13: note = alpha-methyl-leucine; SITE 17: note = Lysine is chemically modified through conjugation of the epsilon-amino group of the Lysine side chain with (2-[2-(2-Amino-ethoxy)-ethoxy]-acetyl)-(gamma-Glu)) [Example 136]" group=false
binder="YXQGTFTSDFSXXLDKKAQXAFIEYLLEXGPSSGEPPPSGS (synthetic construct; SITE 2: note = 2-Aminoisobutyric Acid; SITE 12: note = L-ornithine; SITE 13: note = alpha-methyl-leucine; SITE 17: note = Lysine is chemically modified through conjugation of the epsilon-amino group of the Lysine side chain with (2-[2-(2-Amino-ethoxy)-ethoxy]-acetyl)2-(gamma-Glu)) [Example 166]" group=true
